Hello, the source for this data is BigSolDB 2.1, in case you need it.

- EXPERIMENTAL PARAMETERS: in methanol, 278.15 K
MEASURE NAME: solubility (mole fraction)
Just the number, please.

Query string: State its solubility (mole fraction) for this compound: CCOC(=O)OC1=C(c2cc(C)ccc2C)C(=O)NC12CCC(OC)CC2 (stereo unspecified)
Result string: 0.00534

====

- EXPERIMENTAL PARAMETERS: in isopropanol, 318.15 K
MEASURE NAME: solubility (mole fraction)
No unit in the answer, only the number.

Query string: Consider the compound CCOC(=O)OC1=C(c2cc(C)ccc2C)C(=O)NC12CCC(OC)CC2 (stereo unspecified) . State its measured solubility (mole fraction).
Result string: 0.0165
